Consider the following compounds; for each one, report its IC50 at 48 h.
test: GSK_TCAKS: pIC50 HepG2 human cell line viability assay using luminiscence. […] Seeding density was checked to ensure that new mono-layers were not more than 50% confluent at the time of harvesting. Cell suspension was added to 500 mL of the same medium at a final density of 1.2 * 10^5 cells/mL. This cell suspension was dispensed (25 uL, 3000 cells per well) into 384-well clear-bottom plates using a Multidrop Combi dispenser. Prior to addition of the cell suspension, the screening compounds (250 nL) were pre-dispensed into the plates with an Echo liquid handler. Plates were incubated for 48 h at 37C, 5% CO2. After incubation, plates equilibrated at room temperature for 30 min before proceeding to develop the luminescent signal. The signal developer, CellTiter-Glo Reagent, was allowed to equilibrate at room temperature for 30 min and added to the plates (25uL per well) using a Multidrop Combi dispenser. Plates were left for 10 min at room temperature for stabilization and then read using a ViewLux.; assay type: toxicity, cell-based

Please report IC50 at 48 h for every entry that follows.
1. CC1(Oc2cncc(Cl)c2)CCN(Cc2cc3ccccc3[nH]2)C1 (centres undefined)
2. N#Cc1cccc(CN2CCC(c3nc(-c4ccc(C(F)(F)F)nc4)no3)CC2)c1
3. Oc1c(-c2nnc(Cc3ccc(Cl)cc3)[nH]2)ncc2cccnc12
4. COc1ccc(S(=O)(=O)NC(C)C)cc1Nc1ncc(-c2cccc(F)c2)cn1
5. CCCCn1c(=O)c2c(N)onc2n(CCCC)c1=O
6. Cc1cc(Nc2cc(C3CC3)[nH]n2)nc(N2CCC[C@H]2C(N)=O)n1
7. Cc1nc2c(-c3ncn[nH]3)cc(NC(=O)Cc3ccccc3)cn2c1C

Result:
1. 31.6 µM
2. > 100 µM
3. 39.8 µM
4. > 100 µM
5. 50.1 µM
6. > 100 µM
7. 15.8 µM

---

test system: Trypanosoma brucei brucei; experiment: GSK_TCAKS: pIC50 Trypanosoma brucei viability assay using luminiscence. Assay plates (1536-well) were prepared. T. brucei cultures were harvested and counted in a CASY cell counter. A parasite suspension was prepared at a final concentration of 5 * 10^4 cells/mL in complete HMI9 medium and 6uL was dispensed to all wells containing compounds using a Multidrop Combi dispenser. 6uL of HMI9 media with 0.4% DMSO were dispensed to control columns. Plates were incubated for 24 h at 37C, 5% CO2 then tempered for 10 min at room temperature. ATP content was quantified by adding 4 uL of CellTiter-Glo Reagent (Promega) according to the manufacturer's instructions. Luminescence was measured using a ViewLux.; type: functional, organism-based; settings: Lister 427, CASY
quantity_name: IC50 (nM)
Give bare numbers, in nM.

compound | IC50 (nM)
COc1ccc2ncc(F)c(CCN3CC[C@@H](NC(=O)c4cc5c(s4)CCC5)[C@@H](O)C3)c2n1 | 316
Cc1cc(C)n(-c2nc(NC(C)C)nc(NC(C)(C)C)n2)n1 | 12600
CCc1c(C)nc(-n2nc(C)cc2NC(=O)COc2ccccc2F)[nH]c1=O | 200
NS(=O)(=O)c1ccc(Nc2ncc3cccc(OC4CCNCC4)c3n2)cc1 | 316

Please give IC50 for each item listed below.
1. Cc1cc(C)n(-c2nc(NC(C)(C)C)nc(N3CCOCC3)n2)n1
2. O=C(Nc1ccccc1C(=O)Nc1ccccn1)c1ccco1

Result:
[3980, 501]

---

test system: Leishmania donovani; experiment: GSK_TCAKS: pIC50 Leishmania donovani Imaging: Infected Macrophages. Assay plates (384-well) were prepared by adding 250nL of compound to each well. For single shot assay, the final compound concentration was 5 uM. […] Automated image analysis was performed with a script developed on Acapella High Content Imaging and Analysis Software (PerkinElmer). Output: Percent of infected macrophage cells were reported for each well.; format: functional, organism-based, Homo sapiens; details: THP-1
quantity_name: IC50 (µM)
Give bare numbers, in µM.

Reference set (5 entries):
compound | unit_abbreviation | IC50
c1ccc(CNc2cccc3ccncc23)cc1 | µM | 7.94
CCCc1cc(N)nc(-c2cc(CCC)cc(N)n2)c1 | µM | 2.51
COc1cccc(CN(C)Cc2nc(N)c3c(C)c(C)sc3n2)c1 | µM | 5.01
OC[C@@H](Nc1nccc(-c2c(-c3ccc(F)cc3)ncn2C2CCNCC2)n1)c1ccccc1 | µM | 31.6
Cc1ccc(S(=O)(=O)Nc2ccc(CN3CCN(C(=O)c4cccc(C)c4)CC3)cc2)cc1 | µM | 39.8

Continue with the next compound.
Q: # input compound: COc1ccc2nccc(NC(=O)C3(OC)CCN(CC(O)c4ccc5c(c4)OCCO5)CC3)c2n1 (stereo not drawn) ; wanted: its IC50
Result: 20
